This listing pairs molecules with measured Activity.
assay: Reduction in circulating lymphocytes count in Lewis rat at 2 mg/kg, po measured at 24 hrs by hematology analyzer based analysis; type: Functional, organism-based; design: scale not given: the % may be the effect or the level left; settings: in vivo
Numeric only. Scale: %

Molecule	Quantitative Result
C=CCCOC[C@@H]1CCc2cc([C@H]3CC[C@](N)(CO)C3)ccc2C1	74
COCCCCC1CCc2cc([C@H]3CC[C@](N)(CO)C3)ccc2C1 (stereo in doubt; 13b)	78
COCCC1CCc2cc([C@H]3CC[C@](N)(CO)C3)ccc2C1 (stereo in doubt; 21b)	2

Consider the additional molecule presented here.
Item: COCCCCC1CCc2cc([C@H]3CC[C@](N)(CO)C3)ccc2C1 (stereo in doubt; 13a) | Activity: 87

* * *

assay: Drug metabolism in Lewis rat blood assessed as parent compound concentration at 0.5 mg/kg, po measured at 4 hrs by LC-MS/MS analysis; format: ADME, organism-based; details: Lewis, blood, read-out: Ct
Property: concentration at 4 h (nM)
Numeric only. Scale: nM

Item: CCCSCCC1CCc2cc([C@H]3CC[C@](N)(CO)C3)ccc2C1 (single isomer, unassigned) | concentration at 4 h: 43

* * *

assay: Reduction in circulating lymphocytes count in Lewis rat at 1 mg/kg, po measured at 24 hrs by hematology analyzer based analysis; assay type: organism-based; design: scale not given: the % may be the effect or the level left; conditions: in vivo
This listing pairs compounds with measured Activity.
Numeric only. Scale: %

Compound	Quantitative Result
CCCCCOC1CCc2cc([C@H]3CC[C@](N)(CO)C3)ccc2C1 (stereo in doubt; 10a)	78
CCCCCC[C@@H]1CCc2cc([C@H]3CC[C@](N)(CO)C3)ccc2C1 [BMS-986104]	76
CCCCCCCOC1CCc2cc([C@H]3CC[C@](N)(CO)C3)ccc2C1 (stereo in doubt; 33a)	80
CCCOCCOC[C@H]1CCc2cc([C@H]3CC[C@](N)(CO)C3)ccc2C1	20
CCCCCOC[C@H]1CCc2cc([C@H]3CC[C@](N)(CO)C3)ccc2C1	32

Item: CCCOCCOC1CCc2cc([C@H]3CC[C@](N)(CO)C3)ccc2C1 (some centres undefined) | Activity: 70

Item: `COCCOC[C@@H]1CCc2cc([C@H]3CC[C@](N)(CO)C3)ccc2C1` | Activity: 13

Item: `CCCC/C=C\[C@@H]1CCc2cc([C@H]3CC[C@](N)(CO)C3)ccc2C1` | Activity: 0

Item: `CCCCOC[C@@H]1CCc2cc([C@H]3CC[C@](N)(CO)C3)ccc2C1` | Activity: 71

* * *

test: Half life in Lewis rat at 2 mg/kg, po measured at 4 to 72 hrs; type: ADME, organism-based; details: Lewis, in vivo, time 4-72 hrs
# half-life >= 20 h gives condition met, anything below gives condition not met

Molecule	Assigned Category
COCCCCCCC1CCc2cc([C@H]3CC[C@](N)(CO)C3)ccc2C1 (stereo in doubt; 25a)	condition met
COCCCC1CCc2cc([C@H]3CC[C@](N)(CO)C3)ccc2C1 (stereo in doubt; 22a)	condition not met
CCOCCCC1CCc2cc([C@H]3CC[C@](N)(CO)C3)ccc2C1 (single isomer, unassigned)	condition met
COCCCCCC1CCc2cc([C@H]3CC[C@](N)(CO)C3)ccc2C1 (single isomer, unassigned; 24)	condition not met
C=CCCOC[C@@H]1CCc2cc([C@H]3CC[C@](N)(CO)C3)ccc2C1	condition not met
CCSCCCC1CCc2cc([C@H]3CC[C@](N)(CO)C3)ccc2C1 (single isomer, unassigned)	condition not met
COCCCCC1CCc2cc([C@H]3CC[C@](N)(CO)C3)ccc2C1 (stereo in doubt; 13b)	condition not met

Attention now shifts to the item below.
Q: For this molecule, is measured half-life 20 h or higher? COCCCCCC1CCc2cc([C@H]3CC[C@](N)(CO)C3)ccc2C1 (single isomer, unassigned; 23)
Ans: condition not met
